- ASSAY NOTES: H1N1 influenza NS1A inhibitors, functional cell based assay (AID 504329)
- TEST CONDITIONS: percent inhibition, at 12.5 µM, hits give high values
In all, about 340,000 compounds went through this assay and about 1,000 (0.29%) were called active. Not all results are given here. Measured potencies and affinities stand elsewhere.
QUANTITY KIND: inhibition (%)
Number in %, nothing else.

Solved cases (10 shown):
{"MOLECULE": "N#CC1=C2SCCN2C(=O)C(C#N)C12CCCCC2 (stereo not drawn)", "inhibition, %": -0.17}
{"MOLECULE": "O=C(CCC1CCCN(c2ncccn2)C1)NCc1ccccc1F (stereo not drawn)", "inhibition, %": -9.11}
{"MOLECULE": "O=S(=O)(NCc1cc(-c2ccccc2Cl)no1)c1ccc(Cl)cc1", "inhibition, %": 0.63}
{"MOLECULE": "Cc1cc(C)c2oc(=O)cc(CN3CCN(Cc4ccccc4)CC3)c2c1", "inhibition, %": 0.54}
{"MOLECULE": "COc1ccc(NC2=C(c3ccc(OC)cc3)C(=O)c3ccccc32)cc1", "inhibition, %": 5.77}
{"MOLECULE": "O=C(O)c1ccc(N=Nc2c(O)[nH]c3ccccc23)cc1", "inhibition, %": -7.55}
{"MOLECULE": "COC(=O)c1ccc(N2CCN(C)CC2)c(NC(=O)c2ccc(-c3ccc(Cl)cc3)o2)c1", "inhibition, %": -4.26}
{"MOLECULE": "Cc1cccc(NC2=C(NCCO)C(=O)c3ccccc3C2=O)c1", "inhibition, %": 26.8}
{"MOLECULE": "COc1cc(C=C2C(=O)c3ccccc3C2=O)ccc1O", "inhibition, %": -20.5}
{"MOLECULE": "O=C1c2cccnc2C(=O)N1CNc1ccc(Cl)cc1", "inhibition, %": 3.28}

Prompt line: Quick check: inhibition of CCc1ccc(CN(C)C(=O)c2ccc3c(=O)n4c(nc3c2)CCC4)cc1 ?
Response line: -7.99

Prompt line: Follow-up entry: O=C(CN1C(=O)NC2(CCc3ccccc32)C1=O)c1cccs1 (stereo not drawn)
Response line: -5.04

Prompt line: Follow-up entry: Nc1c(C=C2C=CC(=O)C=C2)c(=O)nc2snc(SCc3ccccc3)n12
Response line: 11.3

Prompt line: Follow-up entry: C=CCOc1ccc(Br)cc1/C=C1\NC(=S)N(C(C)=O)C1=O
Response line: 5.35

Prompt line: Follow-up entry: COc1ccccc1N1CCN(Cc2ccc(OC)c(OC)c2OC)CC1
Response line: 0.22

Prompt line: Follow-up entry: C=CCOc1ccccc1/C=C/C(=O)O
Response line: 1.54

Prompt line: Follow-up entry: COC1=C(Nc2ccccc2)C(=O)C(OC)=C(Nc2ccccc2)C1=O
Response line: 8.96

Prompt line: Follow-up entry: CCOc1ccc(NC2=CC(=O)C(=O)c3ccccc32)cc1
Response line: -7.73

Prompt line: Follow-up entry: CC(=O)Nc1ccc2nc(NC(=O)COc3ccccc3Cl)sc2c1
Response line: -0.9

Prompt line: Follow-up entry: COc1ccc(C=C2C(=O)c3ccccc3C2=O)cc1O
Response line: 16.6

Prompt line: Follow-up entry: CN=C1CC(C)(C)CC(=O)/C1=C(/O)CCCN1C(=O)c2ccccc2C1=O
Response line: -2.2

Prompt line: Follow-up entry: CN1CCN(c2ccc(NC(=O)c3ccc(-c4ccc(Cl)cc4)o3)cc2)CC1
Response line: 6.66

Prompt line: Follow-up entry: COc1ccc(NC2=C(NCCO)C(=O)c3ccccc3C2=O)cc1
Response line: 23.4

###

Measured inhibition by item
- ASSAY NOTES: H1N1 influenza NS1A inhibitors, functional cell based assay (AID 504329)
- TEST CONDITIONS: percent inhibition, at 12.5 µM, hits give high values
The campaign covered roughly 340,000 compounds. About 1,000 (0.29%) were called active. A selection follows. Measured potencies and affinities stand elsewhere.
Number in %, nothing else.

Solved cases (4 shown):
{"MOLECULE": "O=C(COC(=O)/C=C/c1cccc(Cl)c1)NC1CCCC1", "NUMBER": -4.83}
{"MOLECULE": "O=C(NNC(=S)NC(=O)c1cccnc1)c1ccc(Cl)cc1", "NUMBER": -8.92}
{"MOLECULE": "CC1(C)Oc2ccc3ccc(=O)oc3c2/C(=C/NNC(N)=O)C1=O", "NUMBER": -7.94}
{"MOLECULE": "O=C(N/N=C/c1cc2c(cc1Cl)OCO2)c1ccncc1", "NUMBER": -1.41}

Prompt line: Quick check: inhibition of O=C(N/N=C/c1ccncc1)c1ccncc1 ?
Response line: 0.03

Prompt line: Follow-up entry: COc1ccc(OC)c2c1C(=O)C(Cl)=C(Cl)C2=O
Response line: 24.7

Prompt line: Follow-up entry: COCc1c(C(=O)OCC(=O)N(C)C2CCS(=O)(=O)C2)oc2ccccc12 (stereo not drawn)
Response line: -9.04

###

- ASSAY NOTES: H1N1 influenza NS1A inhibitors, functional cell based assay (AID 504329)
- TEST CONDITIONS: percent inhibition, at 12.5 µM, hits give high values
About 1,000 (0.29%) of roughly 340,000 compounds were called active. The list is a sample of the results. Potency and affinity values are given separately.
Measured inhibition by item
Number in %, nothing else.

{"COMPOUND": "N#C/C(=C\\Nc1ccc(Cl)cc1)S(=O)(=O)c1ccccn1", "NUMBER": -7.92}
{"COMPOUND": "CC1CN(c2ccc([N+](=O)[O-])c(NCCOc3ccc(Cl)cc3)c2)CC(C)N1 (stereo not given)", "NUMBER": 20.5}
{"COMPOUND": "CN(C)c1ccc(CCc2ccc(N)cc2)cc1", "NUMBER": 14.3}
{"COMPOUND": "Cc1ccc(CNC(=O)Cn2nnc3ccccc3c2=O)cc1", "NUMBER": -3.7}
{"COMPOUND": "CCc1cccc(NC(=O)CSCc2cc(=O)[nH][nH]2)c1", "NUMBER": 4.49}
{"COMPOUND": "COc1ccc(C2=CC(c3ccc(OC)c(OC)c3)c3c(c4ccccc4oc3=O)O2)cc1OC (stereo not given)", "NUMBER": 26.9}

Prompt line: Quick check: inhibition of Cc1ccc(NC(=O)c2ccc(Nc3c([N+](=O)[O-])cc([N+](=O)[O-])cc3[N+](=O)[O-])cc2)cc1 ?
Response line: 2.68

Prompt line: Follow-up entry: CCCc1nnc(NC(=O)CCC(=O)N2CCN(CCOC(c3ccccc3)c3ccccc3)CC2)s1
Response line: 0.42

Prompt line: Follow-up entry: CC1CN(c2ccc([N+](=O)[O-])c(NCCOc3ccccc3)c2)CCN1 (stereo not given)
Response line: 4.39

Prompt line: Follow-up entry: COc1ccc(Nc2ccc3c(c2)=NC2(CCCCC2)[N+]=3[O-])cc1
Response line: 26.2

###

- ASSAY NOTES: H1N1 influenza NS1A inhibitors, functional cell based assay (AID 504329)
- TEST CONDITIONS: percent inhibition, at 12.5 µM, hits give high values
In all, about 340,000 compounds went through this assay and about 1,000 (0.29%) were called active. A selection follows. Potency and affinity values are given separately.
QUANTITY KIND: inhibition (%)
Number in %, nothing else.

{"COMPOUND": "CC(C)Nc1nc(NC(C)C)nc(N(C)N)n1", "OUTPUT UNIT": "%", "inhibition": 14.6}
{"COMPOUND": "Cc1ccc(S(=O)(=O)Cn2nnnc2C(CC(C)C)N2CCN(C3CCCC3)CC2)cc1 (stereo unspecified)", "OUTPUT UNIT": "%", "inhibition": -5.05}
{"COMPOUND": "Fc1cccc(-c2oncc2-c2nnnn2-c2ccc(Cl)cc2)c1", "OUTPUT UNIT": "%", "inhibition": 12.9}
{"COMPOUND": "O=C1NCCCC1C(=O)N/N=C/c1ccccc1O (stereo unspecified)", "OUTPUT UNIT": "%", "inhibition": 1.62}
{"COMPOUND": "CCCOc1ccc(N2CC(C(=O)Nc3ccc(N4CCOCC4)cc3)CC2=O)cc1 (stereo unspecified)", "OUTPUT UNIT": "%", "inhibition": -0.783}

Switching to the query record.
Prompt line: Quick check: inhibition of O=C(O)C1C2C=CC(C2)C1C(=O)NCCCN1CCOCC1 (stereo unspecified) ?
Response line: -16.9

###

- ASSAY NOTES: H1N1 influenza NS1A inhibitors, functional cell based assay (AID 504329)
- TEST CONDITIONS: percent inhibition, at 12.5 µM, hits give high values
Hit rate of the full screen: of about 340,000 compounds, about 1,000 (0.29%) were called active. A selection follows. Potency and affinity values are given separately.
QUANTITY KIND: inhibition

Solved cases (5 shown):
{"COMPOUND": "CN(C)S(=O)(=O)c1ccc(Cl)c(C(=O)NNC(=O)Cc2nc3ccccc3n2C)c1", "RESULT": "-3.93% (inactive)"}
{"COMPOUND": "CC(C)Cn1c(N)c(C(=O)COC(=O)c2c(F)cccc2F)c(=O)n(C)c1=O", "RESULT": "-5.45% (inactive)"}
{"COMPOUND": "Cc1ccc(/C=N/n2c(-c3ccc(Cl)cc3)n[nH]c2=S)o1", "RESULT": "2.1% (inactive)"}
{"COMPOUND": "Cc1ccccc1NC(=O)c1c(Cl)nc(C)c(Cl)c1C", "RESULT": "-3.05% (inactive)"}
{"COMPOUND": "CC(C)(C)c1cc(=O)[nH]c(SCc2ccccc2)n1", "RESULT": "-17.8% (inactive)"}

Prompt line: Quick check: inhibition of CCN1CCN(c2ccc(NC(=O)c3ccc4c(c3)OCCO4)cc2C)CC1 ?
Response line: -4.06% (inactive)

Prompt line: Follow-up entry: CCOC(=O)C1CCCN(C(=O)/C=C/c2ccc(Cl)cc2)C1 (stereo not drawn)
Response line: -12.8% (inactive)

Prompt line: Follow-up entry: O=C(O)c1ccc(N(c2ccccc2)c2ccccc2)cc1
Response line: -2.79% (inactive)

Prompt line: Follow-up entry: O=C1c2ccccc2C(=O)N1CCc1nc2ccccc2c(=O)n1Cc1ccco1
Response line: -1.09% (inactive)

Prompt line: Follow-up entry: CCn1c(SCC(=O)Nc2nccs2)nnc1-c1cccnc1
Response line: -5.86% (inactive)

Prompt line: Follow-up entry: O=C(O/N=C/c1ccc(Br)cc1)c1ccc(F)cc1
Response line: 5.19% (inactive)

Prompt line: Follow-up entry: CC[n+]1c(/C=C/c2ccc(OC)c(OC)c2)ccc2ccccc21
Response line: 3.91% (inactive)

Prompt line: Follow-up entry: CC[n+]1c(/C=C/c2ccc(OC(C)=O)c(OC)c2)ccc2ccccc21
Response line: 18.9% (inactive)
